Entries and their viability at 28.5 h, 10 µM
Assay: in vitro
Conditions: human, hela cells, % viability
Observation Type: viability at 28.5 h, 10 µM (%)

                                   molecule  readout_value
0  O=C(CSc1nnc2scc(-c3ccccc3)n12)Nc1nsc(-c2ccc(Cl)cc2)n1           95.4
1  CCOC(=O)c1[nH]c2ccccc2c1NC(=O)CN1C(=O)CSC1=O            102
2  Cc1noc(C)c1C[S+]([O-])c1ccc(Br)cc1 (stereo not drawn)           95.6
3          COc1cc(C#N)ccc1Oc1nnnn1-c1ccccc1           93.1
4  Cc1cc([N+](=O)[O-])cc2c1NC(=O)C2(O)N1CCOCC1 (stereo not drawn)           91.7
5  CC1=C[C@@H](CO)[C@H](C(C)C)C[C@H]1Cc1nnc(Cc2c[nH]c3ccccc23)o1           89.1
6  CC(=O)c1ccc(C)cc1OC(=O)C1CCCN(S(C)(=O)=O)C1 (stereo not drawn)            115
7             CN(C(=O)CSc1nnn(C)n1)c1ccccc1            117
8  Cc1ccc(NC(=O)c2cc([N+](=O)[O-])ccc2NCCN2C(=O)c3ccccc3C2=O)cc1           87.5

* * *

Test: in vitro
Settings: human, hela cells, % viability
Entries and their viability at 28.5 h, 10 µM
Observation Type: viability at 28.5 h, 10 µM (%)

>>> print(df.to_string())
                                   molecule  readout_value
0  Cc1oc(C(=O)O)cc1CSCc1cc(C(=O)O)oc1C [CBK263275]            101
1  Cc1cccnc1Nc1ccc(C2CCCN(C(=O)Cc3ccc4c(c3)CCCO4)C2)nc1 (centres unmarked) [CBK285969]           89.8
2  Cc1ccc2nc(-c3ccc(N4C(Nc5nc(C)cc(C)n5)=NC(=O)CC4C(=O)O)cc3)sc2c1 (centres unmarked) [CBK266646]            104
3  COc1cc(F)cc(OC2CCNCC2)c1NC(=O)Cc1c[nH]c2ccccc12 [CBK050246T]             91
4  COc1cccc(NC(=O)c2sc3ncn(C)c(=O)c3c2C)c1 [CBK071807]           99.2

* * *

Test: in vitro
Conditions: human, hela cells, % viability
Observation Type: viability at 28.5 h, 10 µM (%)

>>> df
                                    molecule            observation_type  readout_value
 0  Cc1cnc(CNC(=O)N2CCN(c3ccccc3)CC2)cn1 [CBK155174]  viability at 28.5 h, 10 µM            101
 1  CC(C)(C)OC(=O)N1CCCCC1(C)c1nnc(-c2cccnc2)o1 (centres unmarked) [CBK304714]  viability at 28.5 h, 10 µM           90.2
 2  Cn1c(=O)n(CC(=O)NCCc2ccccc2)c2cccnc21 [CBK283910]  viability at 28.5 h, 10 µM           82.8
 3  COc1ccc(-c2cc(NC(=S)NC(=O)/C=C/c3ccccc3)[nH]n2)cc1 [CBK007190]  viability at 28.5 h, 10 µM           97.9
 4  Cc1nc2ccccc2c(O)c1CN1CCN(C)CC1 [CBK027922]  viability at 28.5 h, 10 µM            119
 5  O=C(Nc1cccc(-c2noc(-c3ccccn3)n2)c1)c1cccs1 [CBK270283]  viability at 28.5 h, 10 µM           88.9
 6  Cc1nc(C(Cc2ccsc2)NC(=O)C2CCCNC2)sc1C (centres unmarked) [CBK282228]  viability at 28.5 h, 10 µM           87.6
 7  O=C(O)c1ccc(/C=N/N2CCN(Cc3ccccc3)CC2)cc1 [CBK265344]  viability at 28.5 h, 10 µM            108
 8  Fc1ccc2c3c([nH]c2c1)C1(CCN(CCCOCc2ccccc2)CC1)NCC3 [CBK039858]  viability at 28.5 h, 10 µM           92.7
 9  COc1ccc2c(c1)C1(CC(=O)N(Cc3ccccc3)C1=O)C(=O)N2CC(=O)O (centres unmarked) [CBK076108]  viability at 28.5 h, 10 µM           92.5
10  O=C(Nc1nnc(-c2ccco2)o1)c1ccccc1 [CBK287420]  viability at 28.5 h, 10 µM           96.3
11  Cc1ncc([N+](=O)[O-])n1CC(=O)Nc1ccccc1F [CBK269335]  viability at 28.5 h, 10 µM           86.4
12  CCC(CN1CCCC1)NC(=O)Cc1ccc(OC)c(C)c1 (centres unmarked) [CBK282752]  viability at 28.5 h, 10 µM           92.9
13  N#Cc1c(-c2ccccc2)cc(-c2ccccc2)nc1SCC(=O)O [CBK131684]  viability at 28.5 h, 10 µM           92.6
14  CCOc1cccc2cc(-c3cc(=O)oc4cc(C)c(O)cc34)oc12 [CBK300517]  viability at 28.5 h, 10 µM           95.9
15      OCCNC(=S)Nc1ccc(Cl)cc1Cl [CBK265330]  viability at 28.5 h, 10 µM            106
16  O=C(CSC1=NCCS1)Nc1ccc(Cl)cn1 [CBK057917]  viability at 28.5 h, 10 µM             84
17  COc1ccc(CC(=O)Nc2nc(OC)cnc2-c2ccoc2)cc1 [CBK145435]  viability at 28.5 h, 10 µM           92.8
18  O=c1cc(CN2CCc3ccccc3C2)[nH]c(=O)[nH]1 [CBK126401]  viability at 28.5 h, 10 µM             94
19  CCCCN(C)c1nccnc1-c1cccc(O)c1 [CBK037652]  viability at 28.5 h, 10 µM             99
